- protocolText: Stat Signaling Pathway (AID 446);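 note: ME-180 cervical cancer cells given 40 pM IL-6 alongside compound; SIE-controlled beta-lactamase reporter measured as 460/530 nm FRET emission ratio; % is set by controls: 0 for no effect and ±100 for the full control effect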
- runConditions: ME-180 (cervical carcinoma) SIE beta-lactamase reporter, IL-6 stimulated, 5 h; at 17.2 µM (top of the series) unless noted
- Description: NCGC Assay Overview: The IL-6/STAT signaling pathway was assayed in ME-180 cervical carcinoma cells by a beta-lactamase reporter gene controlled by a STAT Inducible Element (SIE). This reporter is induced by IL-6 at 40 pM AC50 and inhibited by the pan JAK inhibitor, 2-(1,1-Dimethylethyl)-9-fluoro-3,6-dihydro-7H-benz[h]-imidaz[4,5-f]isoquinolin-7-one, at approximately 10 nM AC50. Plated cells were incubated overnight and on the following day, stimulated with 40 pM IL-6 for 5 hrs. […]
Results filed as inconclusive are left out. Calls of active or inactive are those of the source. Calls come from the whole dose curve; as a rule, active = well fitted curve in either direction with a large enough effect (not every such curve was filed as active); inconclusive = small, poorly fitted or top-dose-only effect, or another doubt; inactive = flat fitted curve, though single readings scatter.
propertyLabel: activity, negative = inhibition

compound | propertyLabel | observedResult
COCCNC(=O)c1c(N)n(/N=C/c2cccs2)c2nc3ccccc3nc12 | activity, negative = inhibition | 19.9% (inactive)
COC(=O)c1ccc(Cn2c(O)c(N=O)c3ccccc32)o1 | activity, negative = inhibition | 3.14% (inactive)
Nc1c2c(nc3ccccc13)N(C1CCCCC1)CC2 | activity, negative = inhibition | 16.7% (inactive)
COC(=O)CC(=O)Cc1nc(N)nc(Nc2ccc(C)c(C)c2)n1 | activity, negative = inhibition | 1.4% (inactive)
COc1cccc(-c2nnc3sc(-c4ccco4)nn23)c1 | activity, negative = inhibition | -1.01% (inactive)
CCOc1ccc(-c2nc(C#N)c(NCC(C)C)o2)cc1 | activity, negative = inhibition | -7.96% (inactive)
O=C(NCCCn1ccnc1)c1cccnc1 | activity, negative = inhibition | 6.38% (inactive)
O=C(C(c1ccccc1)N1CCOCC1)N1CCOCC1 (centres undefined) | activity, negative = inhibition | 13.8% (inactive)
CCCc1nc(NC2CCCCC2)c(C#N)c2c1COC(C)(C)C2 | activity, negative = inhibition | 25.5% (inactive)

* * *

- protocolText: NFAT Signaling Pathway (AID 444);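 note: carbachol stimulus at about its EC50 of 1 µM final; % is set by controls: 0 for no effect and ±100 for the full control effect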
- runConditions: Jurkat NFAT-bla M1, carbachol, beta-lactamase ratio, 5 h; at 17.2 µM (top of the series) unless noted
Inconclusive results are not listed. The source made the active and inactive calls. Calls come from the whole dose curve; as a rule, active = well fitted curve in either direction with a large enough effect (not every such curve was filed as active); inconclusive = small, poorly fitted or top-dose-only effect, or another doubt; inactive = flat fitted curve, though single readings scatter.

molecule | activity change, negative = inhibition
COc1ccc(-c2ncncc2-c2csc(C)n2)c(O)c1 | -5.52% (inactive)
CN1CCc2c(C#N)c(N3CCCCC3)nc(N3CCOCC3)c2C1 | 20.7% (inactive)
O=C(OCCN1CCOCC1)c1ccc2c(c1)OCCO2 | 19.9% (inactive)
O=C(COc1ccc(-c2nnc(N3CCCCC3)c3ccccc23)cc1)N1CCCCC1 | -4.72% (inactive)
O=C(Cc1ccc(Cl)cc1)Nc1cccc(-c2nnc(-c3ccco3)o2)c1 | 11.3% (inactive)
O=C(O)c1cc2cccc(S(=O)(=O)N3CCOCC3)c2cc1O | 0.851% (inactive)
Cn1c(=O)cc(NCc2ccccc2)[nH]c1=O | -6.77% (inactive)
CC(=O)N/C(=N/c1nc(C)cc(C)n1)Nc1ccc(NC(C)=O)cc1 | -3.91% (inactive)
Cc1nccn1-c1cc(C(C)C)c(C#N)c2nc3ccccc3n12 | -0.783% (inactive)
CN1CCc2c(c3c(n2C)CCN(C)[C@@H]3c2cccnc2)[C@H]1c1cccnc1 | 8.24% (inactive)
O=CNC(=O)c1ccccc1C(=O)O | 3.48% (inactive)
O=C1OC2CCC1(c1ccccc1)C2 (stereo unspecified) | 10% (inactive)
CCc1nc(NCC(C)C)c(C#N)c2c1COC(C)(C)C2 | -0.964% (inactive)
Cc1ccc(C2/C(=C(/O)c3ccc(OC(C)C)cc3)C(=O)C(=O)N2CCN2CCOCC2)cc1 (stereo unspecified) | 10.1% (inactive)
COC(=O)[C@@H](NC(=O)c1cc(-c2ccccc2)nc2ccccc12)c1ccccc1 | -7.43% [at 38 µM] (inactive)
CC(C)CN1C(=O)c2ccc(C(=O)Nc3ccccn3)cc2C1=O | 27.9% (inactive)
Nc1nnc(CSCc2ccc(F)cc2)s1 | -1.8% (inactive)
CCC(=NC(CC)CO)C1=C(O)CC(C)(C)CC1=O (stereo unspecified) | -5.13% (inactive)
COc1ccc(OC(=O)c2cc3ccccc3o2)cc1 | -19.7% (inactive)
CCC1(C)Cc2c(C#N)c(N)sc(=S)c2CO1 (stereo unspecified) | -12.1% (inactive)
COc1cccc(OCCN2CCN(c3ncnc4c3cnn4-c3ccccc3)CC2)c1 | -29.6% (inactive)
O=C(O)C1CC(=O)n2c(nc3ccccc32)S1 (stereo unspecified) | -10.4% (inactive)
Cc1cc(=O)oc(C)c1C(=O)NC12CC3CC(CC(C3)C1)C2 | 1.02% (inactive)
CN(C)CC(O)COc1ccc(-c2ccc(C#N)cc2)cc1 (stereo unspecified) | 11.2% (inactive)
COCCCNc1nc2c(c(=O)[nH]c(=O)n2C)n1CC(O)COc1ccccc1 (stereo unspecified) | 16.9% (inactive)
O=C1C(=O)N(CCN2CCOCC2)C(c2ccccn2)/C1=C(/O)c1ccc(F)cc1 (stereo unspecified) | 21.3% (inactive)
Cc1ccc(C2/C(=C(\O)c3cnn(-c4ccccc4)c3C)C(=O)C(=O)N2CCN(C)C)o1 (stereo unspecified) | -12.1% (inactive)
CCOC(=O)C1=C(N)n2c(s/c(=C\c3ccco3)c2=O)=C(C(=O)OC(C)C)C1c1ccco1 (stereo unspecified) | -23.7% (inactive)
CC1(C)CC(=O)C(C=NCC(O)c2ccccc2)=C(O)C1 (stereo unspecified) | -0.832% (inactive)
O=C1C2CC=C(Cl)CC2C(=O)N1CNc1ccccn1 (stereo unspecified) | -12.9% (inactive)
CC1CN(C2CCN(S(=O)(=O)Cc3ccccc3)CC2)CC(C)O1 (stereo unspecified) | -2.24% (inactive)
CCC(=O)Nc1ccc(-c2nnc(SCC(=O)NCC3CCCO3)n2C)cc1 (stereo unspecified) | -1.98% (inactive)
CC(C)c1nc2n[nH]c(N)c2c2c1CCC2 | 9.31% (inactive)
O=C(N(c1ccccc1)c1ccccc1)n1ccnc1 | 10.9% (inactive)
Cn1c(=O)c2c(nc(OCc3cccnc3)n2Cc2ccccc2)n(C)c1=O | -6.31% (inactive)
O=C1CCCN1c1ccc(S(=O)(=O)NCc2ccco2)cc1 | -10.1% (inactive)
COc1ccc(C2(CN(C(C)=O)C(C)=O)CCCC2)cc1OC | 4.27% (inactive)
CC(C)Cn1cnc2c(c1=O)c1nc3ccccc3nc1n2Cc1ccc2c(c1)OCO2 | 8.7% (inactive)
Cc1ccc(-c2nn3c(-c4cccc(Cl)c4)nnc3s2)cc1 | -1.56% (inactive)
CC(=O)[C@H]1CC[C@H]2[C@@H]3CCC4=CC(=O)CC[C@]4(C)[C@H]3[C@H](O)C[C@]12C | 2.54% (inactive)
COc1cccc(C2C(C(=O)c3sc(C)nc3C)=C(O)C(=O)N2CCN2CCOCC2)c1OC (stereo unspecified) | 12.8% (inactive)
